Values compiled from ChEMBL document CHEMBL4387781.

- protocol summary: Protein binding in rat plasma
- Format: ADME, cell-free
- measurement context: read-out: PPB (converted)
property name: fraction unbound
API doc: respond with a numeric literal and nothing else, no unit.

In: Report fraction unbound for "C[C@@H](O[C@H]1CC[C@]2(CC1)COC(C)(C)C2)c1nc(-c2cc(F)c(CS(C)(=O)=O)c(F)c2)no1"
Out: 0.06

====

- target under test: UniProt:Q8TDV5
- Sequence (whole entry): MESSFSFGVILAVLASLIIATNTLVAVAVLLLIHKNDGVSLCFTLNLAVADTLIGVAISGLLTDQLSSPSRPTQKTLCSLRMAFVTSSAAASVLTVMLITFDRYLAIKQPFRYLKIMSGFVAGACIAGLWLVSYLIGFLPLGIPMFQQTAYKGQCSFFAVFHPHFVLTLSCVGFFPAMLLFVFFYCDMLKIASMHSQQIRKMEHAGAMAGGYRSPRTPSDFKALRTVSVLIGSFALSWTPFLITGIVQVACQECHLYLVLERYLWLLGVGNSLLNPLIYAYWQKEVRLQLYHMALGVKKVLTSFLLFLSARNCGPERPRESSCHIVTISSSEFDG
- protocol summary: Agonist activity at recombinant human GPR119 expressed in HEK293 cells assessed as increase in intracellular cAMP accumulation measured after 30 mins relative to oleoylethanolamide
- Format: functional, cell-based
property name: %max (%)
Use % as the unit, but write only the number.

In: Report %max for CC(O[C@H]1CC[C@@]2(CC1)CC(C)(C)CO2)c1nc(-c2ccc(CS(C)(=O)=O)c(F)c2)no1 (stereo partly drawn)
Out: 115

In: Report %max for CC(O[C@H]1CC[C@]2(CCCO2)CC1)c1nc(-c2ccc(CS(C)(=O)=O)c(F)c2)no1 (stereo partly drawn)
Out: 114

In: Report %max for "CC1(C)C[C@]2(CC[C@H](OCc3nc(-c4ccc(S(C)(=O)=O)c(F)c4)no3)CC2)CO1"
Out: 103

====

Measured %max values are reported for all entries that follow.
- target under test: Glucose-dependent insulinotropic receptor (Homo sapiens) (UniProt Q8TDV5)
- protocol summary: Agonist activity at recombinant human GPR119 expressed in HEK293 cells assessed as increase in intracellular cAMP accumulation measured after 30 mins relative to oleoylethanolamide
- Format: functional, cell-based
Use % as the unit, but write only the number.

Use these answered entries as a reference point.
>>> recorded_measurement("CC(O[C@H]1CC[C@]2(CC1)COC(C)(C)C2)c1nc(-c2ccc(C(=O)N(C)C)c(F)c2)no1 (mixture of isomers)")
86
>>> recorded_measurement("C[C@@H](O[C@H]1CC[C@@]2(CC1)CC(F)(F)CO2)c1nc(-c2cc(F)c(CS(C)(=O)=O)c(F)c2)no1")
116
>>> recorded_measurement("C[C@@H](O[C@H]1CC[C@@]2(CC1)CC(F)(F)CCO2)c1nc(-c2cc(F)c(CS(C)(=O)=O)c(F)c2)no1")
106
>>> recorded_measurement("CC(O[C@H]1CC[C@]2(CCC(C)(C)CO2)CC1)c1nc(-c2ccc(CS(C)(=O)=O)c(F)c2)no1 (stereo partly specified)")
109
>>> recorded_measurement("C[C@H](O[C@H]1CC[C@]2(CC1)COC(C)(C)C2)c1nc(-c2ccc(CS(C)(=O)=O)c(F)c2)no1")
106
>>> recorded_measurement("CC(O[C@H]1CC[C@]2(CCCCO2)CC1)c1nc(-c2ccc(CS(C)(=O)=O)c(F)c2)no1 (stereo partly specified)")
112
>>> recorded_measurement("CC(O[C@H]1CC[C@]2(CC1)COC(C)(C)C2)c1nc(-c2ccc(CS(C)(=O)=O)c(F)c2)no1 (mixture of isomers)")
130
>>> recorded_measurement("CC(O[C@H]1CC[C@]2(CC1)COC(C)(C)C2)c1nc(-c2ccc(CC(=O)N(C)C)c(F)c2)no1 (mixture of isomers)")
131

In: Check Glucose-dependent insulinotropic receptor (Homo sapiens) (UniProt Q8TDV5) data and give %max for CC(O[C@H]1CC[C@]2(CC1)COC(C)(C)C2)c1nc(-c2ccc(CS(C)(=O)=O)cc2)no1 (mixture of isomers) .
Out: 120

In: Check Glucose-dependent insulinotropic receptor (Homo sapiens) (UniProt Q8TDV5) data and give %max for "C[C@@H](O[C@H]1CC[C@]2(CCC(F)(F)CO2)CC1)c1nc(-c2cc(F)c(CS(C)(=O)=O)c(F)c2)no1" .
Out: 112

In: Check Glucose-dependent insulinotropic receptor (Homo sapiens) (UniProt Q8TDV5) data and give %max for CC(O[C@H]1CC[C@@]2(CC1)CC(C)(C)CCO2)c1nc(-c2ccc(CS(C)(=O)=O)c(F)c2)no1 (stereo partly specified) .
Out: 113

In: Check Glucose-dependent insulinotropic receptor (Homo sapiens) (UniProt Q8TDV5) data and give %max for "C[C@@H](O[C@H]1CC[C@]2(CC1)COC(C)(C)C2)c1nc(-c2ccc(CS(C)(=O)=O)c(F)c2)no1" .
Out: 106

In: Check Glucose-dependent insulinotropic receptor (Homo sapiens) (UniProt Q8TDV5) data and give %max for CC(O[C@H]1CC[C@]2(CC1)COC(C)(C)C2)c1nc(-c2ccc(S(C)(=O)=O)c(F)c2)no1 (mixture of isomers) .
Out: 109

In: Check Glucose-dependent insulinotropic receptor (Homo sapiens) (UniProt Q8TDV5) data and give %max for "C[C@@H](O[C@H]1CC[C@]2(CC1)COC(C)(C)C2)c1nc(-c2cc(F)c(CS(C)(=O)=O)cc2F)no1" .
Out: 118

In: Check Glucose-dependent insulinotropic receptor (Homo sapiens) (UniProt Q8TDV5) data and give %max for "C[C@@H](O[C@H]1CC[C@]2(CC1)COC(C)(C)C2)c1nc(-c2ccc(CS(C)(=O)=O)c(F)c2F)no1" .
Out: 77

In: Check Glucose-dependent insulinotropic receptor (Homo sapiens) (UniProt Q8TDV5) data and give %max for "C[C@@H](O[C@H]1CC[C@]2(CC1)COC(C)(C)C2)c1nc(-c2cc(F)c(CS(C)(=O)=O)c(F)c2)no1" .
Out: 109
